Entries and their measured % Monomer (SEC) follow.
# assay comment: Size exclusion chromatography (oligomerization state of expressed scFvs)
# Type: physicochemical
# experimental context: purified scFv

Solved cases below.
molecule	recorded value
M17: human anti-mesothelin scFv SEQ ID NO: 55; full CAR SEQ ID NO: 79 (protein) scFv: EVQLVESGGGLVQPGRSLRLSCAASGFTFDDYAMHWVRQAPGKGLEWVSGISWNSGSTGYADSVKGRFTISRDNAKNSLYLQMNSLRAEDTALYYCAKDSSSWYGGGSAFDIWGQGTMVTVSSGGGGSGGGGSGGGGSSSELTQDPAVSVALGQTVRITCQGDSLRSYYASWYQQKPGQAPVLVIYGKNNRPSGIPDRFSGSSSGNTASLTITGAQAEDEADYYCNSRGSSGNHYVFGTGTKVTVL	>98%
M21: human anti-mesothelin scFv SEQ ID NO: 59; CDRs in Tables 4 and 5 (protein) scFv: QVQLVQSWAEVKKPGASVKVSCKASGYTFTSYYMHWVRQAPGQGLEWMGIINPSGGSTSYAQKFQGRVTMTRDTSTSTVYMELSNLRSEDTAVYYCARSPRVTTGYFDYWGQGTLVTVSSGGGGSGGGGSGGGGSGGGGSDIQLTQSPSTLSASVGDRVTITCRASQSISSWLAWYQQKPGKAPKLLIYKASSLESGVPSRFSGSGSGTEFTLTISSLQPDDFATYYCQQYSSYPLTFGGGTRLEIK	>98%

Here is another molecule to look at.
The reported value for M12: human anti-mesothelin scFv SEQ ID NO: 50; full CAR SEQ ID NO: 74 (protein) scFv: QVQLVQSGAEVKKPGASVKVSCKASGYTFTGYYMHWVRQAPGQGLEWMGRINPNSGGTNYAQKFQGRVTMTTDTSTSTAYMELRSLRSDDTAVYYCARTTTSYAFDIWGQGTMVTVSSGGGGSGGGGSGGGGSGGGGSDIQLTQSPSTLSASVGDRVTITCRASQSISTWLAWYQQKPGKAPNLLIYKASTLESGVPSRFSGSGSGTEFTLTISSLQPDDFATYYCQQYNTYSPYTFGQGTKLEIK in terms of % Monomer (SEC) is 70%
